target-or-test-system: Rap guanine nucleotide exchange factor 3 (Homo sapiens)
assay-details: Counterscreen qHTS for agonist of cAMP-regulated guanine nucleotide exchange factor 3 (EPAC1) (AID 1645889); note: % of control where 0% means no effect; nearly all actives have a fitted effect of over 40% in size
condition-context: EPAC1 Rap1B-BODIPY-GDP exchange, fluorescence; series mostly up to 154 µM
Records with an inconclusive call do not appear. The source made the active and inactive calls. Calls come from the whole dose curve; as a rule, active = well fitted activation curve with a large enough effect; inconclusive = small, poorly fitted or top-dose-only effect, or another doubt; inactive = no such curve, though single readings can be large or run the other way.
assay-endpoint: activation

> print(dat)
                                    molecule                             val
 1  CCOc1ccc(C(=O)Nc2c(C(=O)Nc3ccccc3F)oc3ccccc23)cc1OCC                        inactive
 2  C[C@H]1CN([C@@H](C)CO)C(=O)CCCn2cc(nn2)CO[C@@H]1CN(C)S(=O)(=O)c1ccc(-n2cccn2)cc1                        inactive
 3  CCCc1nn2c(=O)cc(COC(=O)c3ccc(NC(=O)COc4ccccc4F)cc3)nc2s1                        inactive
 4  COc1ccc(/C=C2/SC(=O)N(CCC(=O)Nc3ccc(S(=O)(=O)Nc4nccs4)cc3)C2=O)cc1                        inactive
 5  Cc1cccc(NC(=O)COC(=O)c2c(-c3ccccc3)noc2C)c1   24.2% [at 30.8 µM] (inactive)
 6  COc1ccc2nc(N3C(=O)C(O)=C(C(=O)c4ccco4)C3c3ccc(C)o3)sc2c1 (stereo unspecified)                        inactive
 7  O=C(c1cc(-c2ccc(Cl)cc2)nc2ccccc12)N1CCC1                        inactive
 8  C/C(=N\NC(=O)c1ccc(N/N=C(\C)c2ccc(O)cc2)cc1)c1ccc(O)cc1   11.7% [at 30.8 µM] (inactive)
 9  CCC1=NN(C(=O)c2ccc(Br)cc2)C(O)(c2ccccc2)C1 (stereo unspecified)   19.8% [at 30.8 µM] (inactive)
10  CC(=O)Nc1scc(-c2ccccc2)[n+]1-c1ccc(C)cc1   4.92% [at 30.8 µM] (inactive)
11  O=C(O)C(Cc1c[nH]c2ccccc12)NS(=O)(=O)c1ccc(Cl)c(C(F)(F)F)c1 (stereo unspecified)   21.8% [at 30.8 µM] (inactive)
12  COC(=O)Cc1c(C)c2ccc(OC(=O)c3ccco3)cc2oc1=O   4.06% [at 30.8 µM] (inactive)
13  CC(C)CCOP(=O)(c1ccc(N(C)C)cc1)C(O)c1c(Cl)cccc1Cl (stereo unspecified)   2.73% [at 30.8 µM] (inactive)
14  COc1ccccc1/C=C(/C(=O)OCC(=O)Nc1ccc(N(C)C)cc1)c1ccccc1                        inactive
15      Cc1cc(C)c2c(CN3CCC(C)CC3)cc(=O)oc2c1     22% [at 30.8 µM] (inactive)
16       COC(=O)c1ccccc1C(=O)c1c(C)cc(C)cc1C  0.931% [at 30.8 µM] (inactive)
17  COCOCCn1cc(CN2CCS(=O)(=O)N(Cc3ccc(-c4ccc(F)cc4)cc3)C(CC(C)C)C2=O)nn1 (stereo unspecified)                        inactive
18  C#Cc1ccc([C@@H]2C=C(C(=O)NCc3ccccc3)O[C@H](OCc3ccc(CO)cc3)C2)cc1                        inactive
19       O=C(NCc1ccco1)c1c2c(nc3ccccc13)CCC2   26.4% [at 30.8 µM] (inactive)
20           COc1ccc(N=Cc2sc(O)c3ccccc23)cc1     29% [at 30.8 µM] (inactive)
21  CC(=O)Nc1ccc(/C(C)=N/NC(=O)c2ccc(COc3ccccc3Cl)o2)cc1   15.7% [at 30.8 µM] (inactive)
